- assaySystem: pro-heparanase (H60) (Homo sapiens, UniProt Q9Y251, K307R)
- runDescription: Pro-heparanase activation in a cell-based assay (293 cells, DMB assay)
- appliedConditions: inhibition of pro-heparanase activation; Table 7, 5-(5-Phenyl-furan-2-ylmethylene)rhodanine analogs
pIC50: −log10 of the molar value.
quantityMeasured: pIC50

O=C(O)CCCN1C(=O)C(=Cc2ccc(-c3ccccc3[N+](=O)[O-])o2)SC1=S [Compound 3] | 4.84

(I) O=C(O)CN1C(=O)C(=Cc2ccc(-c3ccc(Cl)cc3Cl)o2)SC1=S [Compound 18]
(II) O=C(O)CN1C(=O)C(=Cc2ccc(-c3cccc(Cl)c3)o2)SC1=S [Compound 15]
(III) O=C(O)CN1C(=O)C(=Cc2ccc(-c3ccc(Cl)cc3)o2)SC1=S [Compound 16]
// ascending sort on recorded pIC50 Form field (ranking): labels in requested order.
I, III, II
(I: 4.74, III: 5.42, II: 5.70)

---

- assaySystem: Heparanase (Homo sapiens, UniProt Q9Y251, K307R)
- runDescription: Dimerization assay (H53 hetero-dimer formation, di-methyl-methylene-blue)
- Format: biochemical
- appliedConditions: inhibition of H53 hetero-dimer formation by H8-derived peptides; read-out: IC50 H53
- Source text: Dimerization assay—Activation assay using di-methyl-methylene-blue was effected as described in U.S. Pat. No. 6,190,875.
Where no end group is shown, it is not given here.
quantityMeasured: IC50 (µM)

(P) RFLILL [Compound P8-18]
(Q) PRFLILLGSPKLR [Compound P8-4]
(R) LRTLARGLSPAYL [Compound P8-5]
(S) PRFLILL [Compound P8-11]
Quick one: which order do the items above go in by IC50, smallest to largest? Form field (ranking): labels in requested order.
S, Q, P, R
(S: 1.4 µM, Q: 2.3 µM, P: 5 µM, R: 18 µM)

---

- assaySystem: pro-heparanase (H60) (Homo sapiens, UniProt Q9Y251, K307R)
- Sequence (Q9Y251 36-543 K307R): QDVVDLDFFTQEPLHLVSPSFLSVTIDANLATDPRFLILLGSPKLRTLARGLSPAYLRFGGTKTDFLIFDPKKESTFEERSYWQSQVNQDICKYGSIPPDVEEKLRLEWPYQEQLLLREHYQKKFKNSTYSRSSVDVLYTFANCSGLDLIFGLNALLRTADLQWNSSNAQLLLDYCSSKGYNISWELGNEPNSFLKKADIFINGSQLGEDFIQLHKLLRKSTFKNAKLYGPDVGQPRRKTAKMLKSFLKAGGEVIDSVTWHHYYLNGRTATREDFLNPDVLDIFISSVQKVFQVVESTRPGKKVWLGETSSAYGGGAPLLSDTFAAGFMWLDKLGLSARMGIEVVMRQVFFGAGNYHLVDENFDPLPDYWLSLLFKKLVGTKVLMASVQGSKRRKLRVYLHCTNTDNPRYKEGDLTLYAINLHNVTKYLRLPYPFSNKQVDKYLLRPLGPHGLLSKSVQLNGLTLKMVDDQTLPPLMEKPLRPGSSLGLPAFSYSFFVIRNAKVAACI
- runDescription: Pro-heparanase activation in a cell-based assay (293 cells, DMB assay)
- appliedConditions: inhibition of pro-heparanase activation (H60); Table 15
quantityMeasured: IC50 (nM)

Worked cases, IC50 given:
COCCCN1C(=O)C(=Cc2ccc(-c3ccc(Cl)cc3)o2)SC1=S [Compound 58] | 920
O=C(O)CCCN1C(=O)C(=Cc2ccc(-c3ccc([N+](=O)[O-])cc3)o2)SC1=S [Compound 5] | 130

(A) O=C1/C(=C\c2ccc(-c3ccccc3Cl)o2)SC(=S)N1C1CCS(=O)(=O)C1 (centres unmarked) [Compound 59]
(B) O=C(O)CCCN1C(=O)C(=Cc2ccc(-c3ccc(Cl)cc3)o2)SC1=S [Compound 6]
(C) O=C(O)CCCN1C(=O)C(=Cc2ccc(-c3cccc([N+](=O)[O-])c3)o2)SC1=S [Compound 4]
// ascending sort on recorded IC50 Form field (ranking): labels in requested order.
C, A, B
(C: 160 nM, A: 240 nM, B: 870 nM)

---

- assaySystem: pro-heparanase (H60) (Homo sapiens, UniProt Q9Y251, K307R)
- runDescription: Pro-heparanase activation in a cell-based assay (293 cells, DMB assay)
- appliedConditions: inhibition of pro-heparanase activation; Table 12, known inhibitors of cathepsin B activity
Where a SMILES comes first, the peptide text is derived from it. [ ]: non-standard residue; d: D form. Nle = CCCC[CH](N)C(=O)O
quantityMeasured: IC50 (µM)

CCCCC(C=O)NC(=O)C(CC(C)C)NC(=O)C(CC(C)C)NC(C)=O (stereo not drawn) [Compound 123, reference compound] (Ac-Leu-Leu-[Nle]-aldehyde; configuration not given here) | 7.4
CC(C)CC(NC(=O)C1OC1C(=O)O)C(=O)NCCCCNC(=N)N (centres unmarked) [Compound 127, reference compound] | 32
CC(=O)NC(CC(C)C)C(=O)NC(CC(C)C)C(=O)NC(C=O)CCCNC(=N)N (centres unmarked) [Compound 126, reference compound] | 26

(P) CSCCC(C=O)NC(=O)C(CC(C)C)NC(=O)C(CC(C)C)NC(C)=O (stereo not drawn) [Compound 124, reference compound] (Ac-Leu-Leu-Met-aldehyde; configuration not given here)
(Q) CCCNC(=O)C1OC1C(=O)NC(C(=O)N1CCCC1C(=O)OC)C(C)CC (centres unmarked) [Compound 125, reference compound]
Which gives the smaller IC50 number: P or Q ? Give the chosen item's label as your response.
P

---

- assaySystem: pro-heparanase (H60) (Homo sapiens, UniProt Q9Y251, K307R)
- runDescription: Pro-heparanase activation in a cell-based assay (293 cells, DMB assay)
- appliedConditions: inhibition of pro-heparanase activation; Table 8, 5-(Heteroaryl-2-ylmethylene)rhodanine analogs
quantityMeasured: IC50 (µM)
Please state the figure in µM; there is no need to write the unit.

# get_value(readout= IC50, system= pro-heparanase (H60) (Homo sapiens, UniProt Q9Y251, K307R)) for Cc1c(N2C(=O)C(=Cc3ccco3)SC2=S)c(=O)n(-c2ccccc2)n1C
52

---

- assaySystem: pro-heparanase (H60) (Homo sapiens, UniProt Q9Y251, K307R)
- runDescription: Pro-heparanase activation in a cell-based assay (293 cells, DMB assay)
- appliedConditions: inhibition of pro-heparanase activation; Table 7, 5-(5-Phenyl-furan-2-ylmethylene)rhodanine analogs
quantityMeasured: IC50 (µM)

O=C(O)CN1C(=O)C(=Cc2ccc(-c3ccc(I)cc3)o2)SC1=S | 27
Cc1ccc(-c2ccc(C=C3SC(S)=NC3=O)o2)cc1Cl | 18
O=C(O)CCN1C(=O)C(=Cc2ccc(-c3ccccc3)o2)SC1=S | 2.3

(1) O=C(O)CCN1C(=O)C(=Cc2ccc(-c3ccccc3Cl)o2)SC1=S
(2) O=C(O)CN1C(=O)C(=Cc2ccc(-c3cccc(C(=O)O)c3)o2)SC1=S
(3) O=C1C(=Cc2ccc(-c3cccc(Cl)c3Cl)o2)SC(=S)N1c1ccccc1
Arrange by IC50, high to low. Form field (ranking): labels in requested order.
3, 2, 1
(3: 129 µM, 2: 46 µM, 1: 6 µM)

(A) O=C(O)CN1C(=O)C(=Cc2ccc(-c3cccc(C(F)(F)F)c3)o2)SC1=S
(B) O=C(O)CCN1C(=O)C(=Cc2ccc(-c3ccc([N+](=O)[O-])cc3)o2)SC1=S
(C) O=C(O)c1ccc(-c2ccc(C=C3SC(=S)N(c4ccccc4)C3=O)o2)cc1
(D) O=C(O)c1ccc(-c2ccc(C=C3SC(=S)N(c4cccc([N+](=O)[O-])c4)C3=O)o2)cc1
(E) O=C(O)CN1C(=O)C(=Cc2ccc(-c3ccc([N+](=O)[O-])cc3Cl)o2)SC1=S
Arrange by IC50, high to low. Form field (ranking): labels in requested order.
E, D, A, B, C
(E: 29 µM, D: 13 µM, A: 7 µM, B: 2.8 µM, C: 0.95 µM)

---

- assaySystem: heparanase (H53) (Homo sapiens, UniProt Q9Y251, K307R)
- runDescription: Heparanase activity inhibition (H53), DMB assay
- appliedConditions: heparanase activity inhibition (H53); NI = no inhibition
- Procedure: At the end of the incubation, the cells were lysed by three consecutive cycles of freezing and thawing in a −80° C. Freezer and a 37° C. shaker. Formation of active heparanase was detected by determination of heparanase activity in DMB assay as described in patent application U.S. Pat. No. 6,190,875B.
pIC50: −log10 of the molar value.
quantityMeasured: pIC50

Worked cases, pIC50 given:
Cc1cc(N(C)C)cc2[s+]c3cc(N(C)C)cc(C)c3nc12 | 4.70
O=C(O)CCCN1C(=O)C(=Cc2ccc(-c3ccc(Cl)cc3)o2)SC1=S | 4.44

(I) O=C(O)CCCN1C(=O)C(=Cc2ccc(-c3ccc([N+](=O)[O-])cc3)o2)SC1=S
(II) O=C(O)CCCN1C(=O)C(=Cc2ccc(-c3cccc([N+](=O)[O-])c3)o2)SC1=S
Which gives the smaller pIC50 number: I or II ? Give the chosen item's label as your response.
I

Values compiled from patent US20050042213A1.
